Just for reference, PubChem BioAssay AID1159580 is where these values come from.

# test: chemical genetic growth profiling, strain panel (AID 1159580);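 further: tested at 20 µM; growth read once vehicle control cultures reached saturation at 30 °C; 1 = growth at the plate median or of vehicle wells; lower values mean less growth of the strain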
# assayConditions: S. cerevisiae deletion strains, growth OD, locus YEL061C, strain CIN8, hits give low values
The whole screen tested about 5,500 compounds, of which about 2,000 (36%) were called active. Roughly 18% stayed inconclusive and do not appear here. Some of the results follow.
observedProperty: normalized growth
# answer = number (no unit)

I would be grateful if you could share the reported normalized growth for CC(N)CCCC(C)(C)O (configuration not stated) . 0.994

Same again, this time with ClC1=C(Cl)C2(Cl)C3C(Cl)C=CC3C1(Cl)C2(Cl)Cl (configuration not stated) 1

Same again, this time with CCOC(=O)c1cc(C)nc(Sc2ccccc2)c1C#N 0.917

Same again, this time with COc1cc2c(cc1OC)C1C(=O)c3c(OC)cc4c(c3OC1CO2)CCC(C)(C)O4 (configuration not stated) 1.01

Same again, this time with COc1cc(/C=C2\NC(=O)NC2=O)ccc1O 0.956

Same again, this time with O=C(O)c1cc2ccccc2c(Cc2c(O)c(C(=O)O)cc3ccccc23)c1O 1.03

Same again, this time with O=C(O)c1c2ccccc2cc2ccccc12 1.01

Same again, this time with CC(=O)OC(C)(C)[C@@H]1Cc2cc3ccc(=O)oc3cc2O1 1

Same again, this time with CCN(CC)CCCC(C)Nc1c2ccc(Cl)cc2nc2ccc(OC)cc12 (configuration not stated) 0.907

Same again, this time with O=C1c2cccc3c([N+](=O)[O-])ccc(c23)C(=O)N1Cc1ccco1 0.909

Same again, this time with N=c1ccn2c(n1)O[C@@H]1C2O[C@H](CO)[C@H]1O (some centres not stated) 1.01

Same again, this time with ClC1=C(Cl)C2(Cl)C3C4CC(C5OC45)C3C1(Cl)C2(Cl)Cl (configuration not stated) 1

Same again, this time with CC1=C(/C=C/C(C)=C/C=C/C(C)=C/C=C/C=C(C)/C=C/C=C(C)/C=C/C23OC2(C)CC(O)CC3(C)C)C(C)(C)CC(O)C1 (configuration not stated) 1.01

Same again, this time with C=C(C)C1CNC(C(=O)O)C1CC(=O)O (configuration not stated) 1

Same again, this time with COc1ccc(CN2C(=O)CSC2c2ccccn2)cc1 (configuration not stated) 1.01

Same again, this time with C=Cc1c2[nH]c(c1C)C=c1[nH]c(c(C)c1C=C)=CC1N=C(C=c3[nH]c(c(C)c3CCC(=O)O)=C2)C(CCC(=O)O)=C1C (configuration not stated) 0.986

Same again, this time with COc1ccc(OC)c(S(=O)(=O)Oc2ccc(C#N)cc2)c1 0.956

Same again, this time with Cc1cccc(C)c1OCC(C)N (configuration not stated) 0.991

Same again, this time with Cc1ccc(OS(=O)(=O)c2ccc(C#N)cc2)c(Br)c1 0.934

Same again, this time with COc1ccc(OC)c(S(=O)(=O)Nc2ccc(C#N)cc2)c1 1.02

Same again, this time with CC1=C(C(C)O)C2=NC1C=c1[nH]c(c(C)c1C(C)O)=Cc1[nH]c(c(CCC(=O)O)c1C)C=c1[nH]c(c(C)c1CCC(=O)O)=C2 (configuration not stated) 0.995

Same again, this time with ClC1=C(Cl)C2(Cl)C3C4C=CC(C4)C3C1(Cl)C2(Cl)Cl (configuration not stated) 1

###

Field: normalized growth. Provide a value for each of the molecules that follow.
# test: chemical genetic growth profiling, strain panel (AID 1159580);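 further: tested at 20 µM; growth read once vehicle control cultures reached saturation at 30 °C; 1 = growth at the plate median or of vehicle wells; lower values mean less growth of the strain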
# assayConditions: S. cerevisiae deletion strains, growth OD, locus YDL192W, strain arf1, hits give low values
Hit rate of the full screen: of about 5,500 compounds, about 2,000 (36%) were called active. Inconclusive results (about 18%) are left out. The list shows a part of the results.
# answer = number (no unit)

I would be grateful if you could share the reported normalized growth for CCN(CCO)CCCC(C)Nc1ccnc2cc(Cl)ccc12 (stereo not given) . 1.01

Same again, this time with CC(=O)[C@H]1CCC2C3CCC4=CC(=O)CC[C@]4(C)C3CC[C@@]21C (stereo not given in full) 0.719

Same again, this time with NCC1CCC(C(=O)O)CC1 (stereo not given) 0.994

Same again, this time with COCCc1ccc(OCC(O)CNC(C)C)cc1 (stereo not given) 1

Same again, this time with C=C1C([C@]2(C)C(CC(=O)OC)[C@@](C)(COC(C)=O)OC(=O)C[C@@H]2OC(C)=O)[C@@H](OC=O)[C@H](OC(=O)C(OC(C)=O)C(C)CC)[C@@]2(C)[C@H](c3ccoc3)CC(=O)C12O (stereo not given in full) 1.03

Same again, this time with O=C(CC[N+](=O)[O-])OC[C@H]1O[C@@H](O)[C@H](OC(=O)CC[N+](=O)[O-])[C@@H](OC(=O)CC[N+](=O)[O-])[C@@H]1OC(=O)CC[N+](=O)[O-] 1.03

Same again, this time with CC(C(=O)O)c1cccc(Oc2ccccc2)c1 (stereo not given) 0.973

Same again, this time with CC1CC2C3CCC4=CC(=O)C=C[C@]4(C)[C@@]3(F)[C@@H](O)C[C@]2(C)[C@@]1(O)C(=O)CO (stereo not given in full) 0.974

Same again, this time with CC(C)(OC(=O)c1ccccc1)[C@@H]1Cc2cc3ccc(=O)oc3cc2O1 0.982

Same again, this time with CC[C@H]1OC(=O)[C@H](C)[C@@H](O[C@H]2C[C@@](C)(OC)[C@@H](O)[C@H](C)O2)[C@H](C)[C@@H](O[C@@H]2O[C@H](C)C[C@H](N(C)C)[C@H]2O)[C@](C)(O)C[C@@H](C)CN(C)[C@H](C)[C@@H](O)[C@]1(C)O 0.96

Same again, this time with CN1CCC(=C2c3ccccc3CC(=O)c3sccc32)CC1 1.01

Same again, this time with COc1ccc2cc([C@H](C)CO)ccc2c1 0.966

Same again, this time with COC1=C(OC)C(=O)C(C/C=C(\C)CC/C=C(\C)CC/C=C(\C)CC/C=C(/C)CC/C=C(\C)CC/C=C(\C)CC/C=C(\C)CC/C=C(\C)CC/C=C(\C)CCC=C(C)C)=C(C)C1=O 1.02

Same again, this time with CC(=O)C1CCC2C3CC(=O)C4=CC(=O)CCC4(C)C3CCC12C (stereo not given) 0.982

Same again, this time with c1cncc(C2CCCCN2)c1 (stereo not given) 0.998

Same again, this time with CCCCNc1cc(C(=O)O)cc(S(N)(=O)=O)c1Oc1ccccc1 0.991

Same again, this time with C=C(C)[C@@H]1[C@H]2OC(=O)[C@@H]1[C@]1(O)C[C@H]3O[C@]34C(=O)O[C@H]2[C@]14C 0.99

Same again, this time with CCN(CC)CCNC(=O)c1cc(Br)c(N)cc1OC 0.983

Same again, this time with NC(=O)c1ccc[n+]([C@@H]2O[C@H](COP(=O)([O-])OP(=O)(O)OC[C@H]3O[C@@H](n4cnc5c(N)ncnc54)[C@H](O)[C@@H]3O)[C@@H](O)[C@H]2O)c1 0.99

Same again, this time with O=C1C=CC(=C(c2ccc(O)cc2)c2ccc(O)cc2)C=C1 0.982

Same again, this time with CCOC(=O)C(C)(C)Oc1ccc(Cl)cc1 1.01

Same again, this time with COc1cc2c(cc1OC)C1C(=O)c3c(OC)cc4c(c3OC1CO2)CCC(C)(C)O4 (stereo not given) 0.983

Same again, this time with CC1(C)OC(=O)NC1=O 0.985

Same again, this time with CC1CC2C3CC(F)C4=CC(=O)C=CC4(C)C3(F)C(O)CC2(C)C1(O)C(=O)CO (stereo not given) 1.03

Same again, this time with CC1=C(CC(=O)O)c2cc(F)ccc2/C1=C\c1ccc(S(C)=O)cc1 (stereo not given) 1.02

Same again, this time with CC(=O)OC(C)(C)[C@@H]1Cc2cc3ccc(=O)oc3cc2O1 0.989

Same again, this time with CCC(C)C(OC(C)=O)C(=O)OC1C(O)C2C3(C)C=CC(=O)C(C)(C)C3CC(OC(=O)C(O)C(C)C)C2(C)C23OC2CC(c2ccoc2)C13C (stereo not given) 0.989

Same again, this time with S=c1nc[nH]c2nc[nH]c12 0.974

Same again, this time with CC(=O)N[C@@H](CC(C)C)C(=O)O 0.986

Same again, this time with CCS(=O)CCSP(=O)(OC)OC (stereo not given) 1

Same again, this time with CC1/C(=N\O)C[C@@H]2C[C@H]1C2(C)C (stereo not given in full) 1.03

Same again, this time with COc1cc(NC(C)CCCN)c2ncccc2c1 (stereo not given) 1.01

Same again, this time with CN1CCCN=C1COC(=O)C(O)(c1ccccc1)C1CCCCC1 (stereo not given) 0.999

Same again, this time with COc1cc2c(cc1OC)C1C(=O)c3c(O)cc4c(c3OC1CO2)C=CC(C)(C)O4 (stereo not given) 0.98

Same again, this time with COc1cc(NS(=O)(=O)c2ccc(N)cc2)nc(OC)n1 0.984

Same again, this time with CCC(=O)O[C@H]1CCC2C3CCC4=CC(=O)CC[C@]4(C)C3CC[C@@]21C (stereo not given in full) 0.985

Same again, this time with COc1cc(O)c(C(=O)/C=C/c2ccccc2)c(OC)c1 0.796

Same again, this time with Cc1cc(O)c(C=O)c(O)c1C(=O)O 1.03

Same again, this time with CCN(CC)CCCC(C)Nc1ccnc2cc(Cl)ccc12 (stereo not given) 1

Same again, this time with CC(C)OC(=O)C(C)(C)Oc1ccc(C(=O)c2ccc(Cl)cc2)cc1 0.987
